tested on: HCV Replicon IB; experiment: HCV replicon assay in Huh-7 cells, genotype 1b (Rluc luciferase readout); assay type: cell-based, hepatitis C virus; settings: Hepatitis C virus, 72 h; 10 uM; 1b-Rluc replicon, Huh-7 cells, 3 days; read-out: Inhibition @ 10 uM in 1b-Rluc
ENDPOINT: inhibition at 10 µM (%)
Give the value in % but do not write % after it.

Record excerpt, results attached:
> print(dat)
                                   molecule  assay.value
1  Cc1ccc(CNC(=O)c2cc(C)c3cc(C4CC4)cc(C(F)(F)F)c3n2)nc1          100
2  Cc1cc(C(F)(F)F)c2nc(C(=O)NCc3ccccn3)cc(C)c2c1         93.7
3  Cc1cc(-c2nnc(NCC3OCCO3)o2)nc2c(C(F)(F)F)cc(OCC(F)(F)F)cc12         99.9
4  Cc1cccc(CNC(=O)c2cc(C)c3cc(C4CC4)cc(C(F)(F)F)c3n2)n1         99.4
5  O=C(NCc1ccccn1)c1cc(O)c2cc(OC(F)(F)F)cc(-c3cccc4[nH]ncc34)c2n1         49.3
6  CC(C)=Cc1cc(C(F)(F)F)c2nc(C(=O)NCc3ccccn3)cc(C)c2c1         99.7

Input line: API: value(readout= inhibition at 10 µM, system= HCV Replicon IB, query= Cc1cc(C(=O)NCC2COCC(C)(C)N2)nc2c(C(F)(F)F)cc(C3CC3)cc12 (stereo not drawn) )
Output line: 92.4

Input line: Repeat with "Cc1cc(C(=O)NCc2ccccn2)nc2c(C(F)(F)F)cc(OCC(F)(F)F)cc12"
Output line: 99.8

Input line: Follow-up entry: Cc1cc(-c2nnc(NCC3COCCO3)o2)nc2c(C(F)(F)F)cc(C3CC3)cc12 (stereo not drawn)
Output line: 99.9

Input line: Also check "Cc1cc(-c2nnc(NCCS(C)(=O)=O)o2)nc2c(C(C)(C)C)cc(C3CC3)cc12"
Output line: 99.6

Input line: Next record, please: "Cc1cc(C(=O)NCC2(N)CC2)nc2c(C(F)(F)F)cc(C3CC3)cc12"
Output line: 95.6

Input line: Subsequent entry: "CNCCCNC(=O)c1cc(C)c2cc(C3CC3)cc(C(F)(F)F)c2n1"
Output line: 96.7

###

test system: HCV Replicon IB; assay: HCV replicon assay in Huh-7 cells, genotype 1b (Rluc luciferase readout); type: cell-based, hepatitis C virus; conditions: Hepatitis C virus, 72 h; 10 uM; 1b-Rluc replicon, Huh-7 cells, 3 days; read-out: Inhibition @ 10 uM in 1b-Rluc
Reported inhibition at 10 µM values for the following compounds.
# output: bare number, implied unit %

> print(dat)
                                   compound    target.entity             endpoint  unit.tag  assay.value
1  Cc1cc(-c2nnc(NCC3OCCO3)o2)nc2c(C(F)(F)F)cc(C3CC3)cc12  HCV Replicon IB  inhibition at 10 µM         %          100

Input line: Tell me reported inhibition at 10 µM for "Cc1cc(C(=O)NCCNc2ccccn2)nc2c(C(F)(F)F)cc(C3CC3)cc12" , tested with HCV Replicon IB.
Output line: 94.9

###

test system: HCV Replicon IB; assay: HCV replicon assay in Huh-7 cells, genotype 1b (Rluc luciferase readout); type: cell-based, hepatitis C virus; conditions: Hepatitis C virus, 72 h; 10 uM; 1b-Rluc replicon, Huh-7 cells, 3 days; read-out: Inhibition @ 10 uM in 1b-Rluc
The following compounds are listed with their measured inhibition at 10 µM values.

Some compounds with known inhibition at 10 µM results, for comparison:
> print(dat)
                                   compound  assay.value
1  Cc1cc(C(=O)NCC2CCCCN2)nc2c(C(F)(F)F)cc(C3CCCC3)cc12 (stereo not shown)        99.6%
2  O=C(NC[C@@H]1C[C@@H](F)CN1)c1cc(Cl)c2cc(OC(F)F)cc(C(F)(F)F)c2n1 (single isomer, unassigned)        98.1%
3  COC1CN[C@H](CNC(=O)c2cc(C)c3cc(C4CC4)cc(C(F)(F)F)c3n2)C1 (single isomer, unassigned)        99.7%

Now take the following compound into account.
Input line: Report inhibition at 10 µM for "Cc1cc(C(=O)NCc2ccccn2)nc2c(C(F)(F)F)cc(N)cc12" please.
Output line: 86.9%

###

Reported EC50 is given for each of the following molecules.
tested on: HCV Replicon IB; assay: HCV replicon assay in Huh-7 cells, genotype 1b (Rluc luciferase readout); type: cell-based, hepatitis C virus; settings: Hepatitis C virus, Huh-7, 72 h, HCV1B replicon, Huh-7 cells, 3 days; read-out: EC50_HCV1B_
Express it in nM; write the number only.

Input line: What value of EC50 has been recorded for this entry: "Cc1cc(-c2nnc(N[C@H]3CCOC3)o2)nc2c(C(C)(C)C)cc(OCC(F)(F)F)cc12"
Output line: 2.45

Input line: Again, but for "CC(C)(C)c1cc(C2CC2)cc2c(N)cc(C(=O)NC[C@@H]3CC4(CN3)SCCS4)nc12"
Output line: 6.32

Input line: Follow-up item: "CCCCNc1nnc(-c2cc(N)c3cc(C4CC4)cc(C(C)(C)C)c3n2)o1"
Output line: 11

Input line: What about this molecule? Cc1cc(-c2nnc(NCC3CNC(=O)O3)o2)nc2c(C(C)(C)C)cc(C3CC3)cc12 (stereo not shown)
Output line: 43.9

Input line: Please do the same for "CCCNc1nnc(-c2cc(C)c3cc(C4CC4)cc(C(F)(F)F)c3n2)o1" as well.
Output line: 3.3

Input line: Next up: "Cc1cc(-c2nnc(NC[C@H]3C[C@H](O)C3)o2)nc2c(C(C)(C)C)cc(C3CC3)cc12"
Output line: 4.58

Input line: Now give it for "Cc1cc(-c2nnc(N[C@H]3C[C@H](O)C3)o2)nc2c(C(C)(C)C)cc(C3CC3)cc12" too.
Output line: 5.55

Input line: Can you check Cc1cc(-c2nnc(NCC3OC[C@H](C)O3)o2)nc2c(C(C)(C)C)cc(C3CC3)cc12 (stereo partly shown) next?
Output line: 36.2

Input line: Now this one: "CC(C)(C)c1cc(C2CC2)cc2c(N)cc(-c3nnc(NC[C@@H]4CCCO4)o3)nc12"
Output line: 1.9

###

system: HCV Replicon IB; assay: HCV replicon assay in Huh-7 cells, genotype 1b (Rluc luciferase readout); format: cell-based, hepatitis C virus; details: Hepatitis C virus, Huh-7, 72 h, HCV1B replicon, Huh-7 cells, 3 days; read-out: EC50_HCV1B_
ENDPOINT: EC50
Don't forget the unit after the number, please.

# count of solved cases: 5
> print(dat)
                                   molecule  endpoint  assay.value
1  Cc1cc(-c2nnc(NC3CNCC3O)o2)nc2c(C(C)(C)C)cc(C3CC3)cc12 (stereo not shown)      EC50      1.11 µM
2  Cc1cc(-c2nnc(NC3CC(O)C3)o2)nc2c(C(C)(C)C)cc(C3CC3)cc12 (stereo not shown)      EC50    0.0031 µM
3  CC(F)(F)CNc1nnc(-c2cc(N)c3cc(C4CC4)cc(C(C)(C)C)c3n2)o1      EC50     0.157 µM
4  CCC(O)CNC(=O)c1cc(N)c2cc(C3CC3)cc(C(C)(C)C)c2n1 (stereo not shown)      EC50    0.0138 µM
5  Cc1cc(-c2nnc(NC3CCOCC3)o2)nc2c(C(C)(C)C)cc(OCC(F)(F)F)cc12      EC50   0.00682 µM

Input line: Consider the molecule "Nc1nnc(-c2cc(N)c3cc(C4CC4)cc(C(F)(F)F)c3n2)s1" and give its measured EC50.
Output line: 0.065 µM

Input line: Here is the next molecule: "COC(C)(C)c1cc(C2CC2)cc2c(C)cc(-c3nnc(NCC4OCCO4)o3)nc12"
Output line: 0.00768 µM

Input line: And for CC(C)(C)c1cc(C2CC2)cc2c(N)cc(-c3nnc(NCC4CCCCO4)o3)nc12 (stereo not shown) ?
Output line: 0.0153 µM

Input line: Now give it for "Cc1cc(-c2nnc(NCC3(C)COC3)o2)nc2c(C(C)(C)C)cc(OCC(F)(F)F)cc12" too.
Output line: 1.85 µM

###

tested on: HCV Replicon IB; assay: HCV replicon assay in Huh-7 cells, genotype 1b (Rluc luciferase readout); format: cell-based, hepatitis C virus; details: Hepatitis C virus, 72 h; 10 uM; 1b-Rluc replicon, Huh-7 cells, 3 days; read-out: Inhibition @ 10 uM in 1b-Rluc
A collection of molecules and their measured inhibition at 10 µM
Hi! Could you send only the number? It should be in %, unit omitted.

> print(dat)
                                   molecule    target.entity  assay.value
1  Cc1cc(C(=O)NCc2ccccn2)nc2c(C(C)(C)C)cc(C3CC3)cc12  HCV Replicon IB          100
2  CNC(=O)CNC(=O)c1cc(C)c2cc(C3CC3)cc(C(F)(F)F)c2n1  HCV Replicon IB         97.2
3  Cc1cc(C(=O)NCC2CCN2)nc2c(C(F)(F)F)cc(C3CC3)cc12 (stereo not shown)  HCV Replicon IB         95.2

Now take the following molecule into account.
Input line: Name the recorded inhibition at 10 µM for "Cc1cc(C(=O)NCc2ccccn2)nc2c(C(F)(F)F)cc(C#CC3CC3)cc12" .
Output line: 94.1

Hello, the source for this data is patent US20120053148A1, in case you need it.
